tested_on: human TRPA1 (Homo sapiens (Human), UniProt O75762)
Sequence (O75762 whole entry): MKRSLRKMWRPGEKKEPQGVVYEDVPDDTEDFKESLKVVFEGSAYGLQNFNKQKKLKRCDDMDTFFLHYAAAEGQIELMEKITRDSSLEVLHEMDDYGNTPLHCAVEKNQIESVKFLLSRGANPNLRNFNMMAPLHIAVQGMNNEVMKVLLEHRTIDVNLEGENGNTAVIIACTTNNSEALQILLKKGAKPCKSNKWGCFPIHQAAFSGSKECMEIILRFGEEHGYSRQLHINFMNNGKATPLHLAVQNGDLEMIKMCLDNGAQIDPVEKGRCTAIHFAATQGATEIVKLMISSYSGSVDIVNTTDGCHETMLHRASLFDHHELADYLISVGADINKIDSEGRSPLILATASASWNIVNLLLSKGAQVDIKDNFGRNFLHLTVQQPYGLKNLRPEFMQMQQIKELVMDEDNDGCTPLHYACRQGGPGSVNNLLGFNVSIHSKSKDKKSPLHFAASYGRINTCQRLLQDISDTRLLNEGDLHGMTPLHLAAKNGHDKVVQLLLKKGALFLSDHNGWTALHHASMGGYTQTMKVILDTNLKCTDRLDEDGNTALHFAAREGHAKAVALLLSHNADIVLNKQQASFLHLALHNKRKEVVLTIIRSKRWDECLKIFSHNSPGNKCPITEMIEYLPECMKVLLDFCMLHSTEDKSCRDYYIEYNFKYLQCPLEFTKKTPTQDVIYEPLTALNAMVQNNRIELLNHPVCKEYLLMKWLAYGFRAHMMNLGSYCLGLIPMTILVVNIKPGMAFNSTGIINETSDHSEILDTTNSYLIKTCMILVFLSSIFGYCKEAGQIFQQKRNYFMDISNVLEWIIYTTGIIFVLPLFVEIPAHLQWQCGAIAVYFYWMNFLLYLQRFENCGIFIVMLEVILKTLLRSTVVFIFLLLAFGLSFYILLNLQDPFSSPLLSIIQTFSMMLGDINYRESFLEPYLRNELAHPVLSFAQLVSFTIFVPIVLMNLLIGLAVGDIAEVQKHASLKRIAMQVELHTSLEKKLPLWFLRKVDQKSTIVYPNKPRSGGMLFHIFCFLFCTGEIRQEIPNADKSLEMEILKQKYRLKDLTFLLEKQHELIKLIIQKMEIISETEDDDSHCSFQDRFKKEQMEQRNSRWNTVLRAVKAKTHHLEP
test_name: Measurement of TRPA1 antagonist activity (1): intracellular calcium increase
Format: cell-based
experimental_setup: 293T cells transfected with human TRPA1 expression plasmid; allylisothiocyanate 20 μM stimulation; intracellular calcium fluorescence; read-out: hTRPA1 IC50
recorded_endpoint: pIC50
Note: pIC50 values are expressed as the negative base-10 logarithm of concentration in M.

>>> endpoint_result("C[C@H](NS(=O)(=O)c1cc2cc(F)ccc2o1)C(=O)NCc1cccc(-c2ccc(C(F)(F)F)nn2)c1")
7.70
>>> endpoint_result("N#Cc1ccc(-c2ccnc(CNC(=O)[C@@H]3CCCN3S(=O)(=O)c3cc4ccccc4o3)c2)nc1")
6.80
>>> endpoint_result("C[C@H](NS(=O)(=O)c1cc2cc(F)ccc2o1)C(=O)NCc1cc(-c2cnc(C(F)(F)F)cn2)ccn1")
7.26
>>> endpoint_result("O=C(NCc1cccc(OCc2ccco2)c1)[C@@H]1CCCN1S(=O)(=O)c1cc2ccccc2o1")
7.64
>>> endpoint_result("N#Cc1ccc(-c2ccnc(CNC(=O)[C@@H]3CCCN3S(=O)(=O)c3cc4ccccc4o3)c2)cc1")
7.66

Request: Return pIC50 for the following compound: O=C(NCc1cccc(OCc2ccccc2)c1)[C@@H]1CCCN1S(=O)(=O)c1cc2ccccc2o1
Response: 7.85

Request: Return pIC50 (reported value) for this compound: O=C(NCc1cc(-c2ccc(C(F)(F)F)cn2)ccn1)[C@@H]1C[C@@H](c2ccccc2)CN1S(=O)(=O)c1cc2cc(F)ccc2o1
Response: 7.29

---

Consider the following molecules and their measured pIC50 readings.
tested_on: human TRPA1 (Homo sapiens (Human))
test_name: Measurement of TRPA1 antagonist activity (1): intracellular calcium increase
Type: cell-based
experimental_setup: 293T cells transfected with human TRPA1 expression plasmid; allylisothiocyanate 20 μM stimulation; intracellular calcium fluorescence; read-out: hTRPA1 IC50
Notebook: values listed as pIC50 are -log10 of the concentration (mol/L).

Some solved cases for reference:
>>> endpoint_result("O=C(NCc1cccc(-c2ccc(C(F)(F)F)nc2)c1)[C@@H]1[C@@H](O)CCN1S(=O)(=O)c1cc2cc(F)ccc2o1")
7.64
>>> endpoint_result("O=C(NCc1cccc(-c2ccc(C(F)(F)F)cn2)c1)[C@@H]1[C@@H](O)CCN1S(=O)(=O)c1cc2cc(F)ccc2o1")
7.96
>>> endpoint_result("N#Cc1ccc(-c2cc(CNC(=O)[C@@H]3CCCN3S(=O)(=O)c3cc4ccccc4o3)ccn2)cc1F")
7.92
>>> endpoint_result("O=C(NCc1ccnc(-c2ccc(Cl)cc2)c1)[C@@H]1CCCN1S(=O)(=O)c1cc2ccccc2o1")
7.89
>>> endpoint_result("C#CCN([C@@H](C)C(=O)NCc1ccnc(-c2ccc(C(F)(F)F)cc2O)c1)S(=O)(=O)c1cc2cc(F)ccc2o1")
8.42
>>> endpoint_result("O=C(NC1(c2ccnc(-c3ccc(C(F)(F)F)cc3)c2)CC1)[C@@H]1CCCN1S(=O)(=O)c1cc2ccccc2o1")
7.19

In the following, a different molecule is considered.
Request: Determine its reported pIC50: C[C@H](NS(=O)(=O)c1cc2cnccc2o1)C(=O)NCc1cc(-c2ccc(C(F)(F)F)cc2)ncn1
Response: 7.52

---

tested_on: human TRPA1 (Homo sapiens (Human), UniProt O75762)
test_name: Measurement of TRPA1 antagonist activity (1): intracellular calcium increase
Format: cell-based
experimental_setup: 293T cells transfected with human TRPA1 expression plasmid; allylisothiocyanate 20 μM stimulation; intracellular calcium fluorescence; read-out: hTRPA1 IC50
pIC50: −log10 of the molar value.
Label t when pIC50 >= 8; otherwise f.

Worked set:
>>> group("Cn1nc(C(F)(F)F)cc1-c1cc(CNC(=O)[C@@H]2CCCN2S(=O)(=O)c2cc3ccccc3o2)ccn1 [Example 127]")
"f"
>>> group("O=C(NCc1ccnc(-c2ccc(C(F)(F)F)cc2)c1)[C@@H]1CCCN1S(=O)(=O)c1cc2ccc(F)cc2o1 [Example 220]")
"f"
>>> group("O=C(NCc1cc(-c2ccc(C(F)(F)F)cc2O)ncn1)[C@@H]1CCCN1S(=O)(=O)c1cc2cc(F)ccc2o1 [Example 289]")
"t"
>>> group("O=C(NCc1cccc(-c2ccc(C(F)(F)F)cc2O)n1)[C@@H]1CCCN1S(=O)(=O)c1cc2cc(F)ccc2o1 [Example 147]")
"f"
>>> group("Cn1nc(C(F)(F)F)cc1-c1ccnc(CNC(=O)[C@@H]2CCCN2S(=O)(=O)c2cc3ccccc3o2)c1 [Example 154]")
"f"
>>> group("O=C(NCc1ccnc(-c2ccccc2O)c1)[C@@H]1CCCN1S(=O)(=O)c1cc2cc(F)ccc2o1 [Example 135]")
"f"
>>> group("C[C@H](NS(=O)(=O)c1cc2ccccc2o1)C(=O)NCc1cc(-c2ccc(C(F)(F)F)nc2)ccn1 [Example 105]")
"f"
>>> group("O=C(NCc1cc(-c2ccc(C(F)(F)F)cn2)cnn1)[C@@H]1CCCN1S(=O)(=O)c1cc2ccccc2o1 [Example 212]")
"f"
>>> group("O=C(Nc1cccc(CNC(=O)[C@@H]2CCCN2S(=O)(=O)c2cc3ccccc3o2)c1)c1ccc(C(F)(F)F)cc1 [Example 300]")
"f"
>>> group("O=C(NCc1cc(OC(F)(F)F)ccc1F)[C@@H]1CCCN1S(=O)(=O)c1cc2cc(F)ccc2o1 [Example 71]")
"t"

Request: Quick check, pIC50 >= 8? O=C(NCc1cccc(OCc2ccccc2)c1)[C@@H]1CCCN1S(=O)(=O)c1cc2cc(F)ccc2o1 [Example 43]
Response: t

Request: Answer whether pIC50 of O=C(NCc1cc(-c2ccc(C(F)(F)F)cc2)ncn1)[C@@H]1[C@@H](O)CCN1S(=O)(=O)c1cc2ccccc2o1 [Example 226] is greater than or equal to 8.
Response: f

Request: Decide: pIC50 of O=C(NCc1ccnc(-c2ccc(C(F)(F)F)nc2)c1)[C@@H]1CCCN1S(=O)(=O)c1cc2cc(F)ccc2o1 [Example 133] >= 8?
Response: t

Request: Identify whether the reported pIC50 of the following compound is 8 or greater: O=C(NCc1cc(C2=CCCCC2)ccn1)[C@@H]1CCCN1S(=O)(=O)c1cc2ccccc2o1 [Example 283]
Response: f

Request: Hello, I need to know if O=C(NCc1ccnc(-c2ccc(C(F)(F)F)cc2)c1)[C@@H]1C=CCN1S(=O)(=O)c1cc2cc(F)ccc2o1 [Example 98] has measured pIC50 not below 8. Thanks!
Response: t

Request: Could you please find out whether O=C(NCc1cc(-c2ccc(C(F)(F)F)cn2)ccn1)[C@@H]1CC=CCN1S(=O)(=O)c1cc2cc(F)ccc2o1 [Example 263] has pIC50 that meets 8 or exceeds it?
Response: f

Request: Hi team, for CC(C)COc1nc(CNC(=O)[C@@H]2CCCN2S(=O)(=O)c2cc3ccccc3o2)cc(-c2ccc(C(F)(F)F)cc2)n1 [Example 311] , is the recorded pIC50 at or above 8?
Response: t
